# METHOD DESCRIPTION: LD 50 in the mouse, intravenous (cumulative method of Reed and Muench)
# CONDITIONS USED: in vivo
PARAMETER: LD50 (mg/kg)
Quick note: give the figure in mg/kg, leave out the unit.

>>> value_measured("CNc1nc(Cl)c(Br)c(N2CCN(C)CC2)n1")
55
>>> value_measured("CC(C)Nc1nc(Cl)c(Br)c(N2CCN(C)CC2)n1")
86
>>> value_measured("CC(C)Nc1nc(N2CCN(C)CC2)nc(Cl)c1Br")
83
>>> value_measured("Cc1ccc(N(C)c2nc(Cl)c(Br)c(N3CCN(C)CC3)n2)cc1")
83

Now look at this entry.
Exam item: Can you share its LD50? I mean this molecule: CN1CCN(c2nc(N)nc(Cl)c2Br)CC1
Marked response: 48

FYI, the data here is from patent US4051244A.
